Each entry below lists one item and its recorded pIC50 value.
- target: Myeloperoxidase (Homo sapiens)
- Sequence (P05164 165-273 limits assumed): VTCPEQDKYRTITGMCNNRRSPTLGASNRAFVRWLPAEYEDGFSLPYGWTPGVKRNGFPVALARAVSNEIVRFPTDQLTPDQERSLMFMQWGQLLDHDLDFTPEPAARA
- Sequence (P05164 279-745 limits assumed): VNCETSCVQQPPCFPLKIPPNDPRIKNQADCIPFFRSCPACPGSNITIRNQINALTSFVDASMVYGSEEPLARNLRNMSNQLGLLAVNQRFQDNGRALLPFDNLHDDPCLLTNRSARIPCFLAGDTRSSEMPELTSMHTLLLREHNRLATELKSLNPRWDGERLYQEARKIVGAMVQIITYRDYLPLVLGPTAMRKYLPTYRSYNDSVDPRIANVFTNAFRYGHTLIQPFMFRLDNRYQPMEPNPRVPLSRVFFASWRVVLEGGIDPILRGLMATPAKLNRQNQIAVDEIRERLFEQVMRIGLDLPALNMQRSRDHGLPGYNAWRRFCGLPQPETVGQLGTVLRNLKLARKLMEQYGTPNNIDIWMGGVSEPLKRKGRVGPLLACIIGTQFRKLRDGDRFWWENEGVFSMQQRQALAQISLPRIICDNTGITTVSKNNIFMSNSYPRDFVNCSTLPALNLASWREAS
- assay info: Inhibition of myeloperoxidase (unknown origin) assessed as reduction in enzymatic hypochlorous acid production by spectrophotometry based taurine chlorination assay
Here pIC50 is given on a logarithmic scale as minus log10 of the concentration in mol/L.

Please review the following examples before continuing.
In [3]: df
Out[3]:
                       compound                          target  measured_parameter   val
0         COc1c2ccccc2nn1CCCCCO  Myeloperoxidase (Homo sapiens)               pIC50  5.81
1           COCCn1nc2ccccc2c1OC  Myeloperoxidase (Homo sapiens)               pIC50  5.97
2  c1c2c(cc3c4n(nc13)CCCO4)OCO2  Myeloperoxidase (Homo sapiens)               pIC50  6.39

### Prompt // lookup pIC50 for CCOc1c2ccccc2nn1C(C)C
### Response 6.14

### Prompt Next up: CCCCCn1nc2ccccc2c1OC
### Response 5.41

### Prompt Request: c1ccc2c3n(nc2c1)CCCO3
### Response 6.44

### Prompt # iterate: CCCCn1nc2ccccc2c1OC
### Response 6.04

### Prompt One more compound: c1ccc2c(c1)COc1c3ccccc3nn1-2
### Response 5.38

### Prompt Can you check COc1c2cc3c(cc2nn1C(C)C)OCO3 next?
### Response 6.15

### Prompt And for COc1c2ccccc2nn1C(C)C ?
### Response 6.15

---

Measured log10 of IC50 by item
- target: Myeloperoxidase (Homo sapiens)
- assay info: Inhibition of myeloperoxidase (unknown origin) assessed as reduction in enzymatic hypochlorous acid production by spectrophotometry based taurine chlorination assay
Scale: log10; quantity: IC50; unit before log: µM

                      compound                          target    val
0      COCCOc1c2ccccc2nn1C(C)C  Myeloperoxidase (Homo sapiens)   0.15
1  c1c2c(cc3c4n(nc13)CCS4)OCO2  Myeloperoxidase (Homo sapiens)  -1.06
2      CC(C)n1[nH]c2ccccc2c1=O  Myeloperoxidase (Homo sapiens)  -0.18
3        O=c1c2ccccc2[nH]n1CCO  Myeloperoxidase (Homo sapiens)   0.39
4       O=c1c2ccccc2[nH]n1CCCO  Myeloperoxidase (Homo sapiens)   0.29

### Prompt Query: log10 of IC50; subject: C#Cc1ccc(-n2nc3ccccc3c2OC)cc1
### Response 0.04

### Prompt Also check COc1c2ccccc2nn1CCCCO
### Response 0.25

### Prompt c1ccc2c3n(nc2c1)CCCS3 ?
### Response -0.67

### Prompt Same read-out for CC1COc2c3ccccc3nn21 (stereo not drawn) ?
### Response -0.05

### Prompt Try CC(=O)OCC(C)n1[nH]c2ccccc2c1=O (stereo not drawn) next.
### Response 0.33

### Prompt Also need c1ccc2c3n(nc2c1)CCS3 , thanks.
### Response -1.03

### Prompt Please do the same for COc1c2ccccc2nn1-c1cccc(I)c1 as well.
### Response 0.22

### Prompt Similarly, COc1c2ccccc2nn1-c1ccccc1 ?
### Response 0.31

### Prompt Let us now turn to CCCCn1[nH]c2ccccc2c1=O
### Response -0.10

### Prompt And what about the compound c1c2c(cc3c4n(nc13)CCCS4)OCO2 ?
### Response -0.85

### Prompt Lookup CCCCn1nc2ccccc2c1OCC
### Response -0.09

### Prompt Consider next the compound CC1(C)COc2c3ccccc3nn21 in the same way.
### Response 0.01

### Prompt Lookup COc1c2ccccc2nn1-c1cccc(Cl)c1
### Response 0.68

### Prompt Now consider COc1c2ccccc2nn1-c1ccc(I)cc1 .
### Response 0.30
